Data credit: PubChem BioAssay

assay: RAM pathway blockade in budding yeast – dse1pr::URA3 reporter, 5-FOA selection, pilot screen (AID 869);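 note: 0% = DMSO wells with no growth and 100% = 10 µM 1-NA-PP1 with full growth; RAM network block rescues cells from 5-FOA so hits raise OD615 growth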; conditions: S. cerevisiae dse1pr::URA3 5-FOA growth, OD615, 2 d; at 10 µM; active compounds read high; strain carries analog-sensitive mutant Cbk1 kinase
READOUT TYPE: inhibition (%)
Hi! Could you send only the number? It should be in %, unit omitted.

COMPOUND | RESULT UNIT | NUMERIC RESULT
C=CCOC(=O)C1=C(C)N(C)C(=O)NC1c1cc2c(cc1Br)OCO2 (stereo not given) | % | 1.38
CC(C)C(NC(=O)c1ccc(S(=O)(=O)N2CCOCC2)cc1)c1nc2ccccc2[nH]1 (stereo not given) | % | 2.71
CC(=O)OC1c2c(ccc3ccc(=O)oc23)OC(C)(C)C1OC(=O)CC(C)C (stereo not given) | % | 1.1

query: What value of inhibition has been reported for the following compound? "Cc1ccc(F)c(NC=C2C(=O)OC(C)(C)OC2=O)c1"
result: 2.53

query: Dear colleague, I am looking for the recorded inhibition of the following compound: CCC(C)OC(=O)C1=C(C)NC2=C(C(=O)C(C(=O)OC)C(C)C2)C1c1ccc(N(C)C)cc1 (stereo not given)
result: 1.46

query: // lookup inhibition for "COc1cccc(-c2nc(CS(=O)(=O)CC(=O)NCc3ccc(Cl)cc3)c(C)o2)c1"
result: 2.36

----------
# inhibition per record follows
experiment: RAM pathway blockade in budding yeast – dse1pr::URA3 reporter, 5-FOA selection, pilot screen (AID 869);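 note: 0% = DMSO wells with no growth and 100% = 10 µM 1-NA-PP1 with full growth; RAM network block rescues cells from 5-FOA so hits raise OD615 growth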; conditions: S. cerevisiae dse1pr::URA3 5-FOA growth, OD615, 2 d; at 10 µM; active compounds read high; strain carries analog-sensitive mutant Cbk1 kinase
State just the number; it will be interpreted in %.

MOLECULE | inhibition, %
Cn1nnnc1SCC(=O)Nc1ccccc1-c1ccccc1 | 0.31

Now turn to the next molecule.
query: # lookup: inhibition of "COc1ccc(N(CC(=O)Nc2ccc3c(c2)OCO3)S(=O)(=O)c2c(C)nn(C)c2C)cc1"
result: 2.33

----------
test: S. cerevisiae growth inhibition in permissive medium (OD615), pilot counter-assay for S. cerevisiae lifespan shortening project, permissive growth control (AID 705); conditions: OD615, 24 h, at 10 µM, active compounds read high
READOUT TYPE: growth inhibition (%)
Write the value in % as a bare number.

COMPOUND | RESULT UNIT | growth inhibition
Cc1cc(N2CCN(C3CCCCC3)CC2)nc2cccc(O)c12 | % | -7.5

query: May I ask what growth inhibition has been recorded for COc1cccc(C2CC(c3ccc(C)cc3)Nc3nc(N)nn32)c1 (stereo unspecified) ?
result: -2.17

query: Give its growth inhibition value. Item: "O=C(/C=N/O)Nc1ccccc1C(=O)O"
result: -14.8

----------
assay: yeast transport mutant growth inhibition pilot in 384-well plates, post-Golgi transport modulator project (AID 636); settings: absorbance 615 nm, about 18 h, active compounds read high
READOUT TYPE: inhibition (%)
The answer is to be given in %; state only the numeric part.

Please review the entries below; each comes with its answer.
COMPOUND | RESULT UNIT | NUMERIC RESULT
Cc1cccc(NC(=O)c2ccccc2O)c1C | % | -5.95
Cn1c(=O)c2c(nc(SCCCC#N)n2Cc2c(F)cccc2Cl)n(C)c1=O | % | -1.33
COCCN(CCOC)Cc1c(C)[nH]c2ccccc2c1=O | % | 1.28
COCCN1C=C(C(=O)OC)C(c2cc3c(cc2Br)OCO3)C(C(=O)OC)=C1 | % | -4.13
c1nc(NCC2(N3CCOCC3)CCCCC2)c2ccsc2n1 | % | -5.27
CCC(C)(C(=O)NC1CCCC1)N(Cc1cccs1)C(C)=O (stereo not given) | % | -9.04

query: # inhibition lookup, item O=C1CC(c2ccccc2)CC(O)=C1C=NCCN1CCOCC1 (stereo not given)
result: -7.97

query: Need inhibition, item CC(=O)c1ccc(OCC(O)CN2CCN(CCO)CC2)cc1 (stereo not given)
result: -5.73

query: // returns reported inhibition for input Cc1nnc(N2C(=O)C(O)=C(C(=O)c3ccco3)C2c2ccc(F)cc2)s1 (stereo not given)
result: -3.46

query: Can you look up the measured inhibition of "Cc1ccc(C(=O)OCC(=O)Nc2ccc3c(c2)OCO3)o1" for me?
result: -2.16

query: Bench note: what inhibition did "COc1ccccc1N1CCN(C(=O)N2CCOCC2)CC1" show?
result: -1.95

query: Field request: inhibition | item: "O=C(CCCn1c(=O)c2sccc2n(Cc2cc(=O)n3ccccc3n2)c1=O)NCc1ccco1"
result: 3.59

query: For the compound shown here, "Cc1ccc(-c2cc(C(F)F)nc(NCc3cccnc3)n2)cc1" , give the reported inhibition.
result: -2.63

query: Value lookup for inhibition; key = "Cn1c(C(=O)NCCN2CCN(c3ccccc3F)CC2)cc2c(=O)n(C)c3ccccc3c21"
result: -1.03
